target: CNGA2RE:A4RE:B1b (Rattus norvegicus, UniProt A0A8I5ZN27+Q00195+Q64359, R430E/R538E); construct: expressed in transfected cells; host or cells: Xenopus laevis oocytes (cRNA injection), excised inside-out patches; test: Concentration-activation relationship and activation by fluorescent ligands, patch-clamp; type: biochemical; settings: high affinity component (action of CNGB1b); CNGA2RE:A4RE:B1b; Equation 2; +100 mV; read-out: EC50,h
Sequence (Q00195 whole entry R538E): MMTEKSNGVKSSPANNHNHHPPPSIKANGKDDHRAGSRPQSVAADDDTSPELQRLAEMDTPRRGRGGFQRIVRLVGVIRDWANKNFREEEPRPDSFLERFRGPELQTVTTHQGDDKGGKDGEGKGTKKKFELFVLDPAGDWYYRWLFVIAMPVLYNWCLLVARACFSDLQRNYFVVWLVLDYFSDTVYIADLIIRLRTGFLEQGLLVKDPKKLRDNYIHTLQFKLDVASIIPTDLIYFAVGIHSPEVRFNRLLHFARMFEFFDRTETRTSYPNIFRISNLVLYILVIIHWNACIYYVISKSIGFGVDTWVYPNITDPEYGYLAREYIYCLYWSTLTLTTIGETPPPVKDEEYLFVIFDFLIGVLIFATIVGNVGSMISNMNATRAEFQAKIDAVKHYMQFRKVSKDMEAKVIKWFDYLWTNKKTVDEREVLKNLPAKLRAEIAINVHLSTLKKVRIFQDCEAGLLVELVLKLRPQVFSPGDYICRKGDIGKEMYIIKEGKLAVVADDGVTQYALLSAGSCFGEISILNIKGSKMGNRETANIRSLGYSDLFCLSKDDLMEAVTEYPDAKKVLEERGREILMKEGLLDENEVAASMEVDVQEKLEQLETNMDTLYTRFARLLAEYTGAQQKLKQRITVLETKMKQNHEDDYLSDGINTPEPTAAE
Sequence (Q64359 whole entry R430E): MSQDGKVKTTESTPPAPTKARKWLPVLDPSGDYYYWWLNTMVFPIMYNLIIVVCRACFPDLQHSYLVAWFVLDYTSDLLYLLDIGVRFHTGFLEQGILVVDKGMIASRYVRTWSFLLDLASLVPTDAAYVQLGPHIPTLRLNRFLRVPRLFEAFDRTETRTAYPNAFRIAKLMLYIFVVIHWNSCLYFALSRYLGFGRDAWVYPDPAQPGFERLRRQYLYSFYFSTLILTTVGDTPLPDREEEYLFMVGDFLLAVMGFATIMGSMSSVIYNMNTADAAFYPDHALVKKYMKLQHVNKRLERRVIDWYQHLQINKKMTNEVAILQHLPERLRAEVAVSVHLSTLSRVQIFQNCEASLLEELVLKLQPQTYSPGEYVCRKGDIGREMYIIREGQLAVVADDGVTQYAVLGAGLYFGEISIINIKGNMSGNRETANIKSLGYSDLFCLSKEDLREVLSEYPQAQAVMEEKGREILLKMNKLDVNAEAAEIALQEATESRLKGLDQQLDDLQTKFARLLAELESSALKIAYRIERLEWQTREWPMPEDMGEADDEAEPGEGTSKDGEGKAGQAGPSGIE
Sequence (A0A8I5ZN27 1-858 isoform A0A8I5ZN27-2, stated change not applied): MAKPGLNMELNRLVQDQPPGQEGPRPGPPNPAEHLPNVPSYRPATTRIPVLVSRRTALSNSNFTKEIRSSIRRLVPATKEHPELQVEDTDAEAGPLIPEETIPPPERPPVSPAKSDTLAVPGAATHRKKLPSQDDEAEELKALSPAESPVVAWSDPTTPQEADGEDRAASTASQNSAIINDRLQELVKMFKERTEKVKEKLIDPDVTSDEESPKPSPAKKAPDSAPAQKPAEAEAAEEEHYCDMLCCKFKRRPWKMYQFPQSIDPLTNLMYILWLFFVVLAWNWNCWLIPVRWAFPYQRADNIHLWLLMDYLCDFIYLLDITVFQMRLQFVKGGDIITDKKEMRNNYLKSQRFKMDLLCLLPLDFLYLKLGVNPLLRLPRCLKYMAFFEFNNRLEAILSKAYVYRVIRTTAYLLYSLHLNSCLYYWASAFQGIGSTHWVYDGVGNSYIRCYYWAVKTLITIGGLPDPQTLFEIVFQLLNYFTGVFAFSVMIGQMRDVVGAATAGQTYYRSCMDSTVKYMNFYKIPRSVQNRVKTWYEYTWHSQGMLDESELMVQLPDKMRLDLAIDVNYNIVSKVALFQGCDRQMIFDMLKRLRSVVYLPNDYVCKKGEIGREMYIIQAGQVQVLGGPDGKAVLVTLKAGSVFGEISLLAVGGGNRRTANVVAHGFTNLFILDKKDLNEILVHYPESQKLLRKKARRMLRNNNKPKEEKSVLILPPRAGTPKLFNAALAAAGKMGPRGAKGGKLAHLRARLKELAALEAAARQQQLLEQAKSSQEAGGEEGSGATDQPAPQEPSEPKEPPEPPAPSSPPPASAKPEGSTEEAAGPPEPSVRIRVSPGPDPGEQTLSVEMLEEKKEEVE
pEC50: −log10 of the molar value.
MEASURED METRIC: pEC50

COMPOUND STRUCTURE	MEASURED METRIC	MEASURED
Nc1nc2c(ncn2[C@@H]2O[C@@H]3COP(=O)(O)O[C@H]3[C@H]2O)c(=O)[nH]1	pEC50	5.44
